Origin of values: the supplement of paper PMC10567573

Documented protein stability index across a set of variants
B1: FAM189A2 (parent)
chain: NLAGFILGCQGAQFVSSVPRCDLV

Variants of: B1
ASSAY_DETAILS: protein stability index of a GFP-peptide fusion (GPS, HEK-293T) (PSI 1-6); higher = more stable;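 further: lentivirally expressed fusions sorted by FACS into six bins by GFP to DsRed ratio, PSI derived from sequencing read proportions per bin multiplied by bin number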
RUN_PARAMETERS: c terminus: a fixed tail appended
Could you keep your reply to the number by itself?

Before answering, review these 3 worked examples.
>>> df
   sequence_change             test_readout  measured_result
0             Q10D  protein stability index              3.6
1             A12R  protein stability index             3.12
2             G11R  protein stability index             5.06

Task: I have this variant here, `I6W` , and I need its recorded protein stability index.
Output: 1.76

Task: Now consider `V18Y` .
Output: 2.68

Task: Let us now turn to `C9D`
Output: 1.38

Task: Param item: `L2Q`
Output: 3.01

Task: Moving on to the next variant: `P19N`
Output: 3.15

Task: And `L7Q` ?
Output: 2.1

Task: Now the variant `S16I`
Output: 3.41
